Each recorded value in this set is attributed to the supplement of paper PMC12042874.

PROTOCOL: amyloid nucleation score (Sup35N fusion, yeast selection) (log enrichment); library NNK2; higher = more nucleation; inactive = no reads after selection;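 note: zero at mode of non-aggregating sequences after 7 days selection at 30°C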
ENDPOINT: amyloid nucleation score
Answers are plain numbers.

Solved entries (count: 3):
| SUBSTANCE | RECORDED MEASUREMENT |
| --- | --- |
| SIFHGWARWKGFG | -0.258 |
| VCYKIVKTSYNSFWDF | 4.39 |
| IRSLMSR | 2.32 |

Value sought for every listed substance: amyloid nucleation score.
1. FHVIGRR
2. IVNSNWGARRNKRAACQRES
3. QFWHKSVSTCLWCCSVAGSW
4. EKVDCSVLAGNNWTWVNISL
5. NTTQAV
6. SLSRRQLTIPPVTTRVIQSH
7. YDEKMRVHDKYKTQPLERGR
8. STGSWTTVKLGREGAILHAL

Key:
1. 0.951
2. -0.317
3. 8.73
4. 6.7
5. -0.249
6. 0.637
7. 4.37
8. -0.407

---

PROTOCOL: amyloid nucleation score (Sup35N fusion, yeast selection) (log enrichment); library NNK2; higher = more nucleation; inactive = no reads after selection
ENDPOINT: amyloid nucleation score

| SUBSTANCE | RECORDED MEASUREMENT |
| --- | --- |
| SILGGVKSLRNIKLFSVWLA | -0.569 |
| NMLKGMCWVTLCIWMYMRLC | 4.09 |
| DVCYCRKPTINALRWLMMYA | -0.27 |
| WCKQGVGCDLGAMVELSKGG | 1.22 |
| FFDSLGAGRYNRIRRWLSVV | -1.33 |
| VFSYYMSRFLGATCMYKAAG | 5.1 |
| SNMNNPRHLCAKLSKRQMSY | inactive |
| LLARVYKTICCMNWGFRNE | 2.06 |

Take each entry in turn and give its amyloid nucleation score.
1. CLGKSRYCISDWKFLSLWPN
2. RIYLGRQYYRSEGLKQLVNG

Key:
-0.932
0.151

Provide amyloid nucleation score values for the following items, in order.
1. YWANGSDEDSVGGNIDAVGD
2. ECTYNKSWHQTWVTTRHGSS

Key:
-1.07
0.613

Quick batch: amyloid nucleation score for everything below.
1. YSSNGPGEKWRYR
2. SYDVLCILRS
3. LLTLFG
4. GNFDWAFHYGVFVHLCHKMG
5. SRQRVMLLC
6. IIAPSSEL
7. PTSFLKSIVGVIWISANLSR
8. WWLMWS

Key:
[2.04, -0.547, -0.087, "inactive", "inactive", -0.479, 0.696, 0.691]

Parameter requested: amyloid nucleation score. Apply to each item below.
1. QTMMTTRKCSPLRLVLSQRL
2. LFSHELADSSTVMKYTWWAV
3. AYHNLRN
4. FSGSIVIAGGIVSMRDPGLR
5. MGLVDGMCMFDFDLVLAVVG
6. LSGWDVHTSSTSVFRNNFIY

Key:
1. -0.161
2. 4.23
3. 0.191
4. -0.596
5. inactive
6. inactive

---

PROTOCOL: amyloid nucleation score (Sup35N fusion, yeast selection) (log enrichment); library NNK2; higher = more nucleation; inactive = no reads after selection
ENDPOINT: amyloid nucleation score
Numbers only.

The following sequences have reported results that may help.
| SEQUENCE RECORD | amyloid nucleation score |
| --- | --- |
| SGIADEMGSRLTRKLVNRFY | -0.466 |
| KRYGAVHDVCMRVSFNASQV | 1.2 |
| SYKGALLSEQIL | 0.114 |
| NGRIICNESMSLYKSEV | 0.842 |
| IKTYNGGSWGALSCIALRLI | -1.39 |
| IRKCICSWCVECILRNPAKA | -0.434 |

List reported amyloid nucleation score for each of these sequences:
1. WIIIFSKFV
2. CNIVRSYCLL
3. ISVFLVMQRCVYDSYAFQAE
4. TVHDYFDVQECVIDQCKGLP
5. EIYGFLVIICLLYGSLVSRW
6. FSLCANCNIMMPRSFLSYT
7. VSSHNLMPNRNWMFETQLSW
8. EWHVWVCIWGCGIEAWMLSW

Key:
[-0.695, -0.937, -0.503, 0.654, -0.2, 5.24, -0.297, 1.84]

Exercise: Given NVGTRWSGDARNMFSSKGGK , state its recorded amyloid nucleation score.
Key: 0.83
